Measured chromatographic logP accompanies every entry in the list below.
Experiment: log P determination by HPLC on reversed-phase columns (EEC Directive 79/831 Annex V.A8)
Assay type: physicochemical
Details: reversed-phase C18 HPLC column, pH 2.7; HPLC on reversed-phase columns (C 18), EEC Directive 79/831 Annex V.A8; read-out: logP
Measured endpoint: chromatographic logP

Compound	Result
Cc1cc(Cl)cc(C(=O)NC(C)(C)C)c1NC(=O)c1cc(Cn2ncc(C(F)(C(F)(F)F)C(F)(F)F)n2)nn1-c1ncccc1Cl [Example 260]	4.64
Cc1cc(I)cc(C(=O)NC(C)C2CC2)c1NC(=O)c1cc(Cn2ncc(C(F)(C(F)(F)F)C(F)(F)F)n2)nn1-c1ncccc1Cl (stereo not shown) [Example 266]	4.86
Cc1cc(C#N)cc(C(=O)NC(C)C2CC2)c1NC(=O)c1cc(Cn2cc(C(F)(C(F)(F)F)C(F)(F)F)nn2)nn1-c1ncccc1Cl (stereo not shown) [Example 218]	3.73
CC(C)(C)NC(=O)c1cc(Cl)cc(Cl)c1NC(=O)c1cc(Cn2cc(C(F)(C(F)(F)F)C(F)(F)F)nn2)nn1-c1ncccc1Cl [Example 244]	4.13
Cc1cc(I)cc(C(=O)NCC2CC2)c1NC(=O)c1cc(Cn2ncc(C(F)(C(F)(F)F)C(F)(F)F)n2)nn1-c1ncccc1Cl [Example 269]	4.58
CCNC(=O)c1cc(C#N)cc(C)c1NC(=O)c1cc(Cn2ncc(C(F)(F)F)n2)nn1-c1ncccc1Br [Example 12]	2.53
CNC(=O)c1cc(C#N)cc(C)c1NC(=O)c1cc(Cn2ncc(C(F)(C(F)(F)F)C(F)(F)F)n2)nn1-c1ccccc1Cl [Example 297]	3.88
CNC(=O)c1cc(C#N)cc(C)c1NC(=O)c1cc(Cn2ncc(C(F)(F)F)n2)nn1-c1ccccc1Cl [Example 284]	3.1
Cc1cc(C#N)cc(C(=O)NC(C)C)c1NC(=O)c1cc(Cn2cc(C(F)(F)F)nn2)nn1-c1ncccc1Br [Example 6]	3.11
Cc1cc(C#N)cc(C(=O)NC2CC2)c1NC(=O)c1cc(Cn2cc(C(F)(F)F)nn2)nn1-c1ccccc1Cl [Example 296]	2.93
Cc1cc(Cl)cc(C(=O)NC(C)C2CC2)c1NC(=O)c1cc(Cn2cc(C(F)(C(F)(F)F)C(F)(F)F)nn2)nn1-c1ncccc1Cl (stereo not shown) [Example 226]	4.15
Cc1cc(C#N)cc(C(=O)NC(C)(C)C)c1NC(=O)c1cc(Cn2cc(C(F)(F)F)nn2)nn1-c1ncccc1Br [Example 7]	3.44
CNC(=O)c1cc(C#N)cc(C)c1NC(=O)c1cc(Cn2cc(C(F)(F)F)nn2)nn1-c1ncccc1Br [Example 5]	2.66
